- protocol_summary: Drug distribution in Sprague-Dawley rat stomach tissue measured at 0.5 hrs
- Format: ADME, tissue-based
- test_settings: read-out: Ct
outcome_measure: concentration at 0.5 h
Include the unit after the number when you answer.

Req: Dear colleague, I am looking for the recorded concentration at 0.5 h of the following compound: CO[C@H]1/C=C/O[C@@]2(C)Oc3c(C)c(O)c4c(c3C2=O)C2=NC3(CCN(CCn5c([N+](=O)[O-])cnc5C)CC3)NC2=C(NC(=O)/C(C)=C\C=C\[C@H](C)[C@H](O)[C@@H](C)[C@@H](O)[C@@H](C)[C@H](OC(C)=O)[C@@H]1C)C4=O [RIFASUTENIZOL]
Resp: 113000 ng/g

* * *

- protocol_summary: Drug distribution in Sprague-Dawley rat large intestine content measured at 24 hrs
- Assay type: ADME, tissue-based
- test_settings: read-out: Ct
outcome_measure: concentration at 24 h (ng/g)
Express your answer in ng/g, writing the number without its unit.

Req: Bench note: what concentration at 24 h did CO[C@H]1/C=C/O[C@@]2(C)Oc3c(C)c(O)c4c(c3C2=O)C2=NC3(CCN(CCn5c([N+](=O)[O-])cnc5C)CC3)NC2=C(NC(=O)/C(C)=C\C=C\[C@H](C)[C@H](O)[C@@H](C)[C@@H](O)[C@@H](C)[C@H](OC(C)=O)[C@@H]1C)C4=O show?
Resp: 53.9

* * *

- System: Helicobacter pylori
- protocol_summary: Antibacterial activity against Helicobacter pylori ATCC 700392
- Assay type: functional
outcome_measure: MIC

Req: Hi! What's the reported MIC for CO[C@H]1/C=C/O[C@@]2(C)Oc3c(C)c(O)c4c(O)c(c(N5CCN(C(=O)c6ccc(OCC7(C)Cn8cc([N+](=O)[O-])nc8O7)cc6)CC5)c(O)c4c3C2=O)NC(=O)/C(C)=C\C=C\[C@H](C)[C@H](O)[C@@H](C)[C@@H](O)[C@@H](C)[C@H](OC(C)=O)[C@@H]1C (some centres undefined) on Helicobacter pylori?
Resp: 4 µg/mL

Req: Item CO[C@H]1/C=C/O[C@@]2(C)Oc3c(C)c(O)c4c(=O)c(c5oc6cc(N7CCN(CCn8c([N+](=O)[O-])cnc8C)CC7)cc(O)c6nc-5c4c3C2=O)NC(=O)/C(C)=C\C=C\[C@H](C)[C@H](O)[C@@H](C)[C@@H](O)[C@@H](C)[C@H](OC(C)=O)[C@@H]1C with Helicobacter pylori - MIC?
Resp: 0.004 µg/mL

Req: Lookup: MIC / Helicobacter pylori / CO[C@H]1/C=C/O[C@@]2(C)Oc3c(C)c(O)c4c(O)c(c(N5CCN(CCn6c([N+](=O)[O-])cnc6C)CC5)c(O)c4c3C2=O)NC(=O)/C(C)=C\C=C\[C@H](C)[C@H](O)[C@@H](C)[C@@H](O)[C@@H](C)[C@H](OC(C)=O)[C@@H]1C
Resp: 0.06 µg/mL

Req: Lab request: please report MIC under test system Helicobacter pylori for CO[C@H]1/C=C/O[C@@]2(C)Oc3c(C)c(O)c4c(O)c(c(N5CCN(c6ccc(OCC7(C)Cn8cc([N+](=O)[O-])nc8O7)cc6)CC5)c(O)c4c3C2=O)NC(=O)/C(C)=C\C=C\[C@H](C)[C@H](O)[C@@H](C)[C@@H](O)[C@@H](C)[C@H](OC(C)=O)[C@@H]1C (some centres undefined)
Resp: 1 µg/mL
